# measurement-protocol: C18 chromatography (RP-HPLC), chromatographic hydrophobicity index
# Type: physicochemical
# conditions-used: Waters Symmetry C18 column; CHI log D = 0.0525 CHIC18 − 1.467; pH 7.4
The label is true (1) for chromatographic logD below 3 and false (0) for chromatographic logD equal to or exceeding 3.

COc1cc(-c2cnnc(NS(=O)(=O)c3cc(C(=O)Nc4ccc(C)cc4)c(Cl)cc3SCc3ccccc3)n2)cc(OC)c1OC: true (1)
Cc1cc(S(=O)(=O)Nc2nncc(-c3cccc(F)c3)n2)c(SCc2ccc(C(F)(F)F)cc2)cc1Cl: false (0)
Cc1cc(S(=O)(=O)NC(=O)C=Cc2ccccc2)c(SCc2cccc3ccccc23)cc1Cl: true (1)
Cc1ccc(NC(=O)c2cc(S(=O)(=O)Nc3nncc(-c4ccc(C(F)(F)F)cc4)n3)c(SCc3ccccc3)cc2Cl)cc1: false (0)
O=S(=O)(Nc1cccc2nsnc12)c1ccc(-n2cccc2)cc1: true (1)
Cc1ccnc(NS(=O)(=O)c2ccc(-n3cccc3)cc2)n1: true (1)
Cc1cc(S(=O)(=O)Nc2nnc(Cc3ccccc3[N+](=O)[O-])c(=O)[nH]2)c(SCc2cc3c(cc2Cl)OCO3)cc1Cl: true (1)

----------
# measurement-protocol: Phenyl (Ph) chromatography, logkw from two gradients with DryLab
# Format: physicochemical
# conditions-used: Phenyl chromatography, pH 7.4; short and long gradient
outcome-measure: logkw, Table S6

COc1ccc(-c2cnnc(NS(=O)(=O)c3cc(C(=O)Nc4ccc(Cl)cc4)c(Cl)cc3SCc3ccccc3)n2)cc1: 4.476
O=S(=O)(Nc1cccc2nsnc12)c1ccc(-n2cccc2)cc1: 4.079
COc1ccc(NC(=O)c2cc(S(=O)(=O)Nc3nncc(-c4ccc(OC)cc4)n3)c(SCc3ccccc3)cc2Cl)cc1: 3.789
Cc1cc(S(=O)(=O)Nc2nnc(Cc3ccccc3[N+](=O)[O-])c(=O)[nH]2)c(SCc2cc3c(cc2Cl)OCO3)cc1Cl: 3.897

----------
Entries and their CHIIAM values follow.
# measurement-protocol: IAM chromatography (IAM-HPLC), IAM.PC.DD2 column
# Format: physicochemical
# conditions-used: pH 7.4, 30 °C, acetonitrile gradient
outcome-measure: CHIIAM

COc1ccc(-c2cnnc(NS(=O)(=O)c3cc(C(=O)Nc4ccc(Cl)cc4)c(Cl)cc3SCc3ccccc3)n2)cc1: 39.80
COc1cc(-c2cnnc(NS(=O)(=O)c3cc(C(=O)Nc4ccc(C)cc4)c(Cl)cc3SCc3ccccc3)n2)cc(OC)c1OC: 33.60
Cc1ccc(NC(=O)c2cc(S(=O)(=O)Nc3nncc(-c4ccc(C(F)(F)F)cc4)n3)c(SCc3ccccc3)cc2Cl)cc1: 41.40
COc1ccc(-c2cnnc(NS(=O)(=O)c3cc(C(=O)Nc4ccccc4)c(Cl)cc3SCc3ccccc3)n2)cc1: 35.80
Cc1cc(S(=O)(=O)Nc2nncc(-c3ccc(C(F)(F)F)cc3)n2)c(SCc2ccc(C(F)(F)F)cc2)cc1Cl: 41.30
O=C(Nc1ccc(Cl)cc1)c1cc(S(=O)(=O)Nc2nncc(-c3ccc(C(F)(F)F)cc3)n2)c(SCc2ccccc2)cc1Cl: 43.40
Cc1cc(S(=O)(=O)Nc2nnc(Cc3ccccc3[N+](=O)[O-])c(=O)[nH]2)c(SCc2cc3c(cc2Cl)OCO3)cc1Cl: 35.20
COc1ccc(NC(=O)c2cc(S(=O)(=O)Nc3nncc(-c4ccc(OC)cc4)n3)c(SCc3ccccc3)cc2Cl)cc1: 34.90
COc1ccc(-c2cnnc(NS(=O)(=O)c3cc(C(=O)Nc4ccc(C)cc4)c(Cl)cc3SCc3ccccc3)n2)cc1: 37.50

----------
Entries and their logkwCN values follow.
# measurement-protocol: Cyanopropyl (CN) chromatography, logkw from two gradients with DryLab
# Format: physicochemical
# conditions-used: pH 7.4, 40 °C; retention factor extrapolated to 0% organic modifier
outcome-measure: logkwCN

COc1ccc(-c2cnnc(NS(=O)(=O)c3cc(C)c(Cl)cc3SCc3cccc4ccccc34)n2)cc1 [Compound 23]: 2.48
Cc1ccc2cccc(NS(=O)(=O)c3ccc(-n4cccc4)cc3)c2n1 [Compound 4]: 3.63
Cc1cc(S(=O)(=O)Nc2nncc(-c3cccc(F)c3)n2)c(SCc2ccc(C(F)(F)F)cc2)cc1Cl [Compound 24]: 2.28
O=S(=O)(Nc1ccc(Cl)cc1)c1ccc(-n2cccc2)cc1 [Compound 6]: 2.89
Cc1ccc(NC(=O)c2cc(S(=O)(=O)Nc3nncc(-c4ccc(C(F)(F)F)cc4)n3)c(SCc3ccccc3)cc2Cl)cc1 [Compound 17]: 2.54
Cc1cc(S(=O)(=O)Nc2nnc(C)c(=O)[nH]2)c(SCc2cccc3ccccc23)cc1Cl [Compound 9]: 1.85
Cc1ccc2cccnc2c1NS(=O)(=O)c1ccc(-n2cccc2)cc1 [Compound 3]: 2.97
Cc1cc(C)nc(NS(=O)(=O)c2ccc(-n3cccc3)cc2)n1 [Compound 7]: 1.78

----------
Entries and their logkw, Table S4 values follow.
# measurement-protocol: C8 chromatography (RP-HPLC), logkw from two gradients with DryLab
# Assay type: physicochemical
# conditions-used: C8 chromatography, pH 7.4; short and long gradient
outcome-measure: logkw, Table S4

Cc1cc(S(=O)(=O)NC(=O)C=Cc2ccccc2)c(SCc2cccc3ccccc23)cc1Cl [Compound 27]: 4.279
Cc1cc(C)nc(NS(=O)(=O)c2ccc(-n3cccc3)cc2)n1 [Compound 7]: 3.300
Cc1ccc2cccc(NS(=O)(=O)c3ccc(-n4cccc4)cc3)c2n1 [Compound 4]: 4.898
COc1ccc(-c2cnnc(NS(=O)(=O)c3cc(C(=O)Nc4ccccc4)c(Cl)cc3SCc3ccccc3)n2)cc1 [Compound 14]: 4.130
Cc1cc(S(=O)(=O)Nc2nncc(-c3cccc(F)c3)n2)c(SCc2cccc3ccccc23)cc1Cl [Compound 22]: 4.276
COc1ccc(-c2cnnc(NS(=O)(=O)c3cc(C)c(Cl)cc3SCc3cccc4ccccc34)n2)cc1 [Compound 23]: 4.120
Cc1cc(S(=O)(=O)Nc2nncc(-c3cccc(F)c3)n2)c(SCc2ccccc2)cc1Cl [Compound 13]: 4.030
Cc1cc(S(=O)(=O)Nc2nncc(-c3cccc(F)c3)n2)c(SCc2ccc(C(F)(F)F)cc2)cc1Cl [Compound 24]: 4.256
